- experiment_summary: Lapatinib pharmacokinetics in rat blood plasma (BP), HPLC-MS/MS, noncompartmental analysis
- Type: in vivo, rats
- applied_conditions: male, Wistar, rat, plasma, po, 100 mg/kg, blood plasma; lapatinib 100 mg/kg oral + 5 mg/kg elacridar (IE+L); read-out: MRT0-t
- Protocol: This study was conducted on rats, which are a promising model to predict P-gp-based drug-drug interactions at the human BBB [15]. The animals were allowed to acclimate for one week before the beginning of the experiments. Adult male Wistar-strain rats (weight 470–525 g) were used in the study. […]
measured_endpoint: MRT last (h)
Give the quantity in h, number only.

Fill blank: measured MRT last of the molecule CS(=O)(=O)CCNCc1ccc(-c2ccc3ncnc(Nc4ccc(OCc5cccc(F)c5)c(Cl)c4)c3c2)o1 [lapatinib] is ____.
11.1

====

- experiment_summary: Lapatinib pharmacokinetics and uptake in rat cerebrospinal fluid (CSF)
- Format: in vivo, rats
- applied_conditions: male, Wistar, rat, cerebrospinal fluid, po, 100 mg/kg, cerebrospinal fluid; lapatinib 100 mg/kg oral + 5 mg/kg elacridar (IE+L)
measured_endpoint: Tmax (h)
Give the value in h but do not write h after it.

Recorded Tmax of CS(=O)(=O)CCNCc1ccc(-c2ccc3ncnc(Nc4ccc(OCc5cccc(F)c5)c(Cl)c4)c3c2)o1 , please.
4

====

- experiment_summary: Lapatinib pharmacokinetics in rat blood plasma (BP), HPLC-MS/MS, noncompartmental analysis
- Assay type: in vivo, rats
- applied_conditions: male, Wistar, rat, plasma, po, 100 mg/kg, lapatinib p.o. 100 mg/kg alone, 0.5 h; read-out: Clapatinib in BP, single rat
measured_endpoint: concentration at 0.5 h (ng/mL)
I only need the number, in ng/mL, no unit after it.

If you can, please state the reported concentration at 0.5 h value of CS(=O)(=O)CCNCc1ccc(-c2ccc3ncnc(Nc4ccc(OCc5cccc(F)c5)c(Cl)c4)c3c2)o1 .
1210

====

- experiment_summary: Lapatinib pharmacokinetics and uptake in rat brain tissue (BT)
- Assay type: in vivo, rats
- applied_conditions: male, Wistar, rat, brain tissue homogenate, po, 100 mg/kg, lapatinib p.o. 100 mg/kg alone, 0.25 h; read-out: Clapatinib in BT, S (medium value)
measured_endpoint: concentration at 0.25 h (ng/mL)
Reply numerically in ng/mL, unit not repeated.

Give the measured concentration at 0.25 h of CS(=O)(=O)CCNCc1ccc(-c2ccc3ncnc(Nc4ccc(OCc5cccc(F)c5)c(Cl)c4)c3c2)o1 .
34.3

====

- experiment_summary: Lapatinib pharmacokinetics in rat blood plasma (BP), HPLC-MS/MS, noncompartmental analysis
- Type: in vivo, rats
- applied_conditions: male, Wistar, rat, plasma, po, 100 mg/kg, blood plasma; lapatinib 100 mg/kg oral + 5 mg/kg elacridar (IE+L)
- Procedure: This study was conducted on rats, which are a promising model to predict P-gp-based drug-drug interactions at the human BBB [15]. The animals were allowed to acclimate for one week before the beginning of the experiments. Adult male Wistar-strain rats (weight 470–525 g) were used in the study. […]
measured_endpoint: AUC(0-inf)

Which AUC(0-inf) value is on record for CS(=O)(=O)CCNCc1ccc(-c2ccc3ncnc(Nc4ccc(OCc5cccc(F)c5)c(Cl)c4)c3c2)o1 [lapatinib] ?
95100 ng·h/mL

====

- experiment_summary: Lapatinib pharmacokinetics in rat blood plasma (BP), HPLC-MS/MS, noncompartmental analysis
- Assay type: in vivo, rats
- applied_conditions: male, Wistar, rat, plasma, po, 100 mg/kg, lapatinib p.o. 100 mg/kg alone, 12 h; read-out: Clapatinib in BP, S (medium value)
measured_endpoint: concentration at 12 h (ng/mL)
Your answer is read as ng/mL, so omit the unit and give the number.

Requested read-out: concentration at 12 h. Entry: CS(=O)(=O)CCNCc1ccc(-c2ccc3ncnc(Nc4ccc(OCc5cccc(F)c5)c(Cl)c4)c3c2)o1
1500

====

- experiment_summary: Lapatinib pharmacokinetics and uptake in rat brain tissue (BT)
- Format: in vivo, rats
- applied_conditions: male, Wistar, rat, brain, po, 100 mg/kg, brain tissue; lapatinib 100 mg/kg oral + 5 mg/kg elacridar (IE+L)
- Description: This study was conducted on rats, which are a promising model to predict P-gp-based drug-drug interactions at the human BBB [15]. The animals were allowed to acclimate for one week before the beginning of the experiments. Adult male Wistar-strain rats (weight 470–525 g) were used in the study. […]
measured_endpoint: Cmax (ng/mL)
Just the number in ng/mL, nothing appended.

Give the measured Cmax of CS(=O)(=O)CCNCc1ccc(-c2ccc3ncnc(Nc4ccc(OCc5cccc(F)c5)c(Cl)c4)c3c2)o1 .
198

====

- experiment_summary: Lapatinib pharmacokinetics and uptake in rat brain tissue (BT);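 for BT corr (BT homogenate), single rat: brain concentration corrected for residual brain blood by the Fridén method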
- Format: in vivo, rats
- applied_conditions: male, Wistar, rat, brain, oral, lapatinib 100 mg/kg + elacridar, 0.25 h; read-out: BT corr (BT homogenate), single rat
measured_endpoint: concentration at 0.25 h

Which concentration at 0.25 h value is on record for CS(=O)(=O)CCNCc1ccc(-c2ccc3ncnc(Nc4ccc(OCc5cccc(F)c5)c(Cl)c4)c3c2)o1 ?
30.7 ng/mL

====

- experiment_summary: Lapatinib pharmacokinetics and uptake in rat cerebrospinal fluid (CSF)
- Type: in vivo, rats
- applied_conditions: male, Wistar, rat, cerebrospinal fluid (CSF), po, 100 mg/kg, lapatinib p.o. 100 mg/kg alone, 4 h; read-out: Clapatinib in CSF, single rat
measured_endpoint: concentration at 4 h
The reply should read as a number followed by its unit.

Given the compound CS(=O)(=O)CCNCc1ccc(-c2ccc3ncnc(Nc4ccc(OCc5cccc(F)c5)c(Cl)c4)c3c2)o1 , what is its reported concentration at 4 h?
13.8 ng/mL

====

- experiment_summary: Lapatinib pharmacokinetics and uptake in rat brain tissue (BT)
- Assay type: in vivo, rats
- applied_conditions: male, Wistar, rat, brain tissue homogenate, po, 100 mg/kg, lapatinib p.o. 100 mg/kg alone, 4 h; read-out: BT corr (BT homogenate corrected), S
measured_endpoint: concentration at 4 h (ng/mL)
// note: answer is a bare numeric in ng/mL

Fill in: concentration at 4 h of CS(=O)(=O)CCNCc1ccc(-c2ccc3ncnc(Nc4ccc(OCc5cccc(F)c5)c(Cl)c4)c3c2)o1 is ___
115

====

- experiment_summary: Lapatinib pharmacokinetics and uptake in rat brain tissue (BT);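 for BT corr (BT homogenate), single rat: brain concentration corrected for residual brain blood by the Fridén method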
- Assay type: in vivo, rats
- applied_conditions: male, Wistar, rat, brain tissue homogenate, oral, lapatinib 100 mg/kg + elacridar, 0.5 h; read-out: BT corr (BT homogenate), single rat
measured_endpoint: concentration at 0.5 h (ng/mL)
// note: answer is a bare numeric in ng/mL

Consider the molecule CS(=O)(=O)CCNCc1ccc(-c2ccc3ncnc(Nc4ccc(OCc5cccc(F)c5)c(Cl)c4)c3c2)o1 [lapatinib] and give its measured concentration at 0.5 h.
45.2

====

- experiment_summary: Lapatinib pharmacokinetics and uptake in rat brain tissue (BT)
- Type: in vivo, rats
- applied_conditions: male, Wistar, rat, brain, po, 100 mg/kg, brain tissue; lapatinib 100 mg/kg oral + 5 mg/kg elacridar (IE+L)
measured_endpoint: AUC(0-t)
Please report the result as a number followed by the unit.

Give the measured AUC(0-t) of CS(=O)(=O)CCNCc1ccc(-c2ccc3ncnc(Nc4ccc(OCc5cccc(F)c5)c(Cl)c4)c3c2)o1 .
1.61 µg·h/mL

====

- experiment_summary: Lapatinib pharmacokinetics and uptake in rat brain tissue (BT)
- Assay type: in vivo, rats
- applied_conditions: male, Wistar, rat, brain, po, 100 mg/kg, brain tissue; lapatinib 100 mg/kg oral + 5 mg/kg elacridar (IE+L)
measured_endpoint: k el (s⁻¹)
Entry rule: numbers only, all in s⁻¹.

k el for CS(=O)(=O)CCNCc1ccc(-c2ccc3ncnc(Nc4ccc(OCc5cccc(F)c5)c(Cl)c4)c3c2)o1 [lapatinib] ?
1.39e-05

====

- experiment_summary: Lapatinib pharmacokinetics in rat blood plasma (BP), HPLC-MS/MS, noncompartmental analysis
- Assay type: in vivo, rats
- applied_conditions: male, Wistar, rat, plasma, oral, lapatinib 100 mg/kg + elacridar, 1 h; read-out: Clapatinib in BP, S
measured_endpoint: concentration at 1 h (ng/mL)
Please reply with the bare figure in ng/mL and do not write the unit itself.

Given CS(=O)(=O)CCNCc1ccc(-c2ccc3ncnc(Nc4ccc(OCc5cccc(F)c5)c(Cl)c4)c3c2)o1 , state its recorded concentration at 1 h.
1980

====

- experiment_summary: Lapatinib pharmacokinetics and uptake in rat brain tissue (BT)
- Format: in vivo, rats
- applied_conditions: male, Wistar, rat, brain tissue homogenate, po, 100 mg/kg, lapatinib p.o. 100 mg/kg alone, 12 h; read-out: Clapatinib in BT, S (medium value)
- Experimental: This study was conducted on rats, which are a promising model to predict P-gp-based drug-drug interactions at the human BBB [15]. The animals were allowed to acclimate for one week before the beginning of the experiments. Adult male Wistar-strain rats (weight 470–525 g) were used in the study. […]
measured_endpoint: concentration at 12 h (ng/mL)
Please respond with the number in ng/mL and leave the unit unwritten.

What concentration at 12 h value was documented for this compound, CS(=O)(=O)CCNCc1ccc(-c2ccc3ncnc(Nc4ccc(OCc5cccc(F)c5)c(Cl)c4)c3c2)o1 ?
59.6
